property: IC50
# answer = value followed by unit

Form entry - test system: Wee1-like protein kinase (Homo sapiens); read-out: IC50; compound: `Cn1c(=O)c(-c2c(Cl)cccc2Cl)cc2cnc(Nc3ccc(CC(N)=O)cc3)nc21`
Sequence (P30291 whole entry): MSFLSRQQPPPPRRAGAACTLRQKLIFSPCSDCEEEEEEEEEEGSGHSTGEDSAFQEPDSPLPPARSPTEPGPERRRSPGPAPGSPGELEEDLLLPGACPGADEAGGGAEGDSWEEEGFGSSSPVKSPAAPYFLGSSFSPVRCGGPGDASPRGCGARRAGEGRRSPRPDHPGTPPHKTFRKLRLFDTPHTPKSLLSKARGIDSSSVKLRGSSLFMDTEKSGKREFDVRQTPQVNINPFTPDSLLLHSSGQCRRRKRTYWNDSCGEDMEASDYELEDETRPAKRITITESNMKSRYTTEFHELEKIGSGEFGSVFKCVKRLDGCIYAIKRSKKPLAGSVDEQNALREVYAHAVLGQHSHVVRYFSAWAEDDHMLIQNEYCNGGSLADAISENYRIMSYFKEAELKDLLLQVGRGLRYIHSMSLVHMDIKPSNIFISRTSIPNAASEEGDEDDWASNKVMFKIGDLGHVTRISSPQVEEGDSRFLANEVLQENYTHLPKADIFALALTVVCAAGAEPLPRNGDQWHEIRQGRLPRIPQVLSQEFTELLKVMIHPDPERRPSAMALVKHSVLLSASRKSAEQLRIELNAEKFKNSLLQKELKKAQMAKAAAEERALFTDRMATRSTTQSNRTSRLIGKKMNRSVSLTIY
120 nM

API: value(readout=IC50, system=Wee1-like protein kinase (Homo sapiens)) for record Cn1c(=O)c(-c2c(Cl)cccc2Cl)cc2cnc(Nc3ccc(CC(N)C(=O)O)cc3)nc21 (stereo not given)
90 nM

# get_value(readout= IC50, system= Wee1-like protein kinase (Homo sapiens)) for `Cn1c(=O)c(-c2c(Cl)cccc2Cl)cc2cnc(Nc3ccc(CCCC4N=NN=N4)cc3)nc21`
69 nM

Value wanted: IC50 (Wee1-like protein kinase (Homo sapiens)) of entry `Cn1c(=O)c(-c2c(Cl)cccc2Cl)cc2cnc(Nc3ccc(OCC(N)=O)cc3)nc21`
250 nM

Lab note: need IC50 with Wee1-like protein kinase (Homo sapiens) for entry `CCN(CC)CCOc1ccc(Nc2ncc3cc(-c4c(C)cccc4C)c(=O)n(C)c3n2)cc1` , please look it up.
990 nM
